Assign z-score to each entry below.
- TARGET OR SYSTEM: NADPH oxidase 5 (Homo sapiens)
- RUN DESCRIPTION: NOX5-dependent H2O2 signal modulators, primary screen, NOX inhibitor project, cell-based, HEK293-NOX5, Amplex Red fluorescence (AID 1161)
- CONDITION DESCRIPTION: HEK293-NOX5, ionomycin, 45 min, higher = more signal
Give bare numbers.

Example results:
MOLECULE	TEST VALUE
O=C1[C@H]2[C@H]3[C@H](O)[C@H](O)CC(=NO[C@@H]4O[C@H](CO)[C@@H](O)[C@H](O)[C@H]4O)[C@@H]3CC[C@H]2C(=O)N1c1cccc(Oc2ccccc2)c1	0.544
CC(CCN1CCc2nc(-c3ccccc3)c(-c3ccccc3)cc2C1)=NO[C@@H](C)c1cc(-c2c(C)cc(C)cc2C)no1	-0.296
C#CCCCON=C1C[C@@H](O)[C@@H](O)[C@@H]2[C@@H]3C(=O)N(C[C@@H]4CCCO4)C(=O)[C@@H]3CC[C@@H]12	-0.0863
CCOC(=O)[C@H](CC(C)C)NC(=O)CCC1CC(OC(=O)NCc2ccc3c(c2)OCO3)CC2(CCCC(COC(=O)NCc3ccccc3)O2)O1 (some centres not stated)	0.202
CC(C)[C@@H](OCc1ccccc1)[C@H](C)CON=C1[C@H]2CCn3c(=O)n(-c4ccccc4)c(=O)n3[C@H]2[C@H](O)[C@@H]2O[C@H]12	-0.851
O=C1C2=CC[C@H]3C(=O)N(c4ccc(F)cc4F)C(=O)[C@H]3[C@H]2[C@H](O)[C@@H]2O[C@H]12	-0.191

Continue with the next molecule.
Challenge: Output measured z-score for this item: "O=C1C2=CC[C@H]3C(=O)N(C4CCCCC4)C(=O)[C@H]3[C@H]2[C@H](O)[C@@H]2O[C@H]12"
Response given: 0.952
